# Tested system: NK1 Receptor (Homo sapiens, UniProt P25103)
# Construct: Measurement of NK1 Receptor Mediated Intracellular [Ca^2+]; Mobilization in U251 MG Cells Using FLIPR; endogenous in cells
# Sequence (P25103 whole entry): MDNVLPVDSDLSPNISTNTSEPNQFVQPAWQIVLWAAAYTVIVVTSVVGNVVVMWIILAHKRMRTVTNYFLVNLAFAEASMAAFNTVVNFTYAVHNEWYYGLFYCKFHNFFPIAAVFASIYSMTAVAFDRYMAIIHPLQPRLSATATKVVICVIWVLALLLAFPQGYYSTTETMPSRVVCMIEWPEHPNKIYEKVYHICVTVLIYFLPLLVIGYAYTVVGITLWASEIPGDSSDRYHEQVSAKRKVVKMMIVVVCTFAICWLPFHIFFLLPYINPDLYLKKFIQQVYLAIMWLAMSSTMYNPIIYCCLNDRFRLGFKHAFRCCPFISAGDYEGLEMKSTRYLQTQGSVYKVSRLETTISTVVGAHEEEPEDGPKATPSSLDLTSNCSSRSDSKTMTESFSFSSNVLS
# Experiment: NK1 receptor mediated intracellular [Ca2+] mobilization in U251 MG cells using FLIPR
# Reported conditions: antagonism of Substance P (EC80), Fluo-4, read-out: NK1R mediated intracellular [Ca^2+] mobilization IC 50
Measured endpoint: pIC50
Please treat pIC50 as minus the base-10 logarithm of the molar concentration.

Below: 5 molecules and their reported pIC50.
{"columns": ["Molecule", "Tested system", "pIC50"],
 "data": [
  ["Cc1cc(F)ccc1C1C2CC(CCO)(CCO)C(=O)N2CCN1C(=O)N(C)[C@H](C)c1cc(Cl)cc(C(F)(F)F)c1 (single isomer, unassigned) [Compound 11]", "NK1 Receptor (Homo sapiens, UniProt P25103)", 9.21],
  ["Cc1ncccc1[C@H]1[C@@H]2CCC(=O)N2CCN1C(=O)N(C)[C@H](C)c1cc(C(F)(F)F)cc(C(F)(F)F)c1", "NK1 Receptor (Homo sapiens, UniProt P25103)", 9.05],
  ["Cc1cc(O)ccc1[C@H]1[C@@H]2CC(CCO)(CCO)C(=O)N2CCN1C(=O)N(C)[C@H](C)c1cc(C(F)(F)F)cc(C(F)(F)F)c1", "NK1 Receptor (Homo sapiens, UniProt P25103)", 9.94],
  ["Cc1cc([C@@H](C)N(C)C(=O)N2CCN3C(=O)C(CCO)(CCO)CC3C2c2ccc(F)cc2C)cc(C(F)(F)F)c1 (single isomer, unassigned) [Compound 13]", "NK1 Receptor (Homo sapiens, UniProt P25103)", 10.47],
  ["Cc1ccc(C2C3CC(CCO)(CCO)C(=O)N3CCN2C(=O)N(C)[C@H](C)c2cc(C(F)(F)F)cc(C(F)(F)F)c2)c(C)c1 (single isomer, unassigned) [Compound 6]", "NK1 Receptor (Homo sapiens, UniProt P25103)", 8.80]
]}

Turning now to a further record.
Input COc1ccc([C@H]2[C@@H]3CC(CCO)(CCO)C(=O)N3CCN2C(=O)N(C)[C@H](C)c2cc(C(F)(F)F)cc(C(F)(F)F)c2)c(C)c1 . Output pIC50: 9.94

----------
# Tested system: NK1 Receptor (Homo sapiens, UniProt P25103)
# Construct: Measurement of NK1 Receptor Mediated Intracellular [Ca^2+]; Mobilization in U251 MG Cells Using FLIPR; endogenous in cells
# Experiment: NK1 receptor mediated intracellular [Ca2+] mobilization in U251 MG cells using FLIPR
# Reported conditions: antagonism of Substance P (EC80), Fluo-4, read-out: NK1R mediated intracellular [Ca^2+] mobilization IC 50
Measured endpoint: pIC50
Please treat pIC50 as minus the base-10 logarithm of the molar concentration.

Below: 5 compounds and their reported pIC50.
{"columns": ["Compound", "Reported value"],
 "data": [
  ["C[C@H](c1cc(C(F)(F)F)cc(C(F)(F)F)c1)N(C)C(=O)N1CCN2C(=O)CC[C@H]2[C@@H]1c1ccccc1CO", 9.96],
  ["C[C@H](c1cc(C(F)(F)F)cc(C(F)(F)F)c1)N(C)C(=O)N1CCN2C(=O)CC[C@H]2[C@@H]1c1ccc(F)cc1", 7.00],
  ["Cc1ccc(C)c([C@H]2[C@@H]3CC(CCO)(CCO)C(=O)N3CCN2C(=O)N(C)[C@H](C)c2cc(C(C)C)cc(C(F)(F)F)c2)c1", 9.93],
  ["Cc1cc([C@@H](C)N(C)C(=O)N2CCN3C(=O)CC[C@H]3[C@@H]2c2cccc(C)c2C)cc(C(F)(F)F)c1", 9.44],
  ["CCc1cc([C@@H](C)N(C)C(=O)N2CCN3C(=O)C(CCO)(CCO)C[C@H]3[C@@H]2c2ccc(F)cc2C)cc(C(F)(F)F)c1", 10.10]
]}

Input Cc1cccc([C@H]2[C@@H]3CCC(=O)N3CCN2C(=O)N(C)[C@H](C)c2cc(C(F)(F)F)cc(C(F)(F)F)c2)c1C . Output pIC50: 9.71

Input Cc1cc(F)ccc1C1C2CC(CCO)(CCO)C(=O)N2CCN1C(=O)N(C)[C@H](C)c1cc(Cl)cc(C(F)(F)F)c1 (single isomer, unassigned) [Compound 10] . Output pIC50: 10.20

----------
# Tested system: NK1 Receptor (Homo sapiens)
# Construct: Measurement of NK1 Receptor Mediated Intracellular [Ca^2+]; Mobilization in U251 MG Cells Using FLIPR; endogenous in cells
# Experiment: NK1 receptor mediated intracellular [Ca2+] mobilization in U251 MG cells using FLIPR
# Reported conditions: antagonism of Substance P (EC80), Fluo-4, read-out: NK1R mediated intracellular [Ca^2+] mobilization IC 50
IC50 values by entry
Supply the numeric figure in nM, leaving out any unit text.

Below: 5 molecules and their reported IC50.
{"columns": ["Molecule", "Reported value"],
 "data": [
  ["Cc1cccnc1[C@@H]1[C@@H]2CCC(=O)N2CCN1C(=O)N(C)[C@H](C)c1cc(C(F)(F)F)cc(C(F)(F)F)c1 [Compound 44]", 100],
  ["C[C@H](c1cc(C(F)(F)F)cc(C(F)(F)F)c1)N(C)C(=O)N1CCN2C(=O)CC[C@H]2[C@@H]1c1cccc2c1CCC2 [Compound 79]", 2.57],
  ["CCc1cc([C@@H](C)N(C)C(=O)N2CCN3C(=O)CC[C@H]3[C@@H]2c2ccccc2CC)cc(C(F)(F)F)c1 (single isomer, unassigned) [Compound 70]", 0.94],
  ["Cc1cc([C@@H](C)N(C)C(=O)N2CCN3C(=O)CC[C@H]3[C@@H]2c2ccc(F)cc2C)cc(C(F)(F)F)c1 [Compound 21]", 0.083],
  ["Cc1cnccc1[C@H]1[C@@H]2CCC(=O)N2CCN1C(=O)N(C)[C@H](C)c1cc(C(F)(F)F)cc(C(F)(F)F)c1 [Compound 46]", 0.167]
]}

Input Cc1cc(OCc2ccccc2)ccc1[C@H]1[C@@H]2CCC(=O)N2CCN1C(=O)N(C)[C@H](C)c1cc(C(F)(F)F)cc(C(F)(F)F)c1 [Compound 26] . Output IC50: 7.36

Input Cc1ccncc1[C@H]1[C@@H]2CCC(=O)N2CCN1C(=O)N(C)[C@H](C)c1cc(C(F)(F)F)cc(C(F)(F)F)c1 [Compound 45] . Output IC50: 0.772

Input Cc1ccsc1[C@H]1[C@@H]2CCC(=O)N2CCN1C(=O)N(C)[C@H](C)c1cc(C(F)(F)F)cc(C(F)(F)F)c1 [Compound 50] . Output IC50: 0.08

Input C[C@H](c1cc(C(F)(F)F)cc(C(F)(F)F)c1)N(C)C(=O)N1CCN2C(=O)CC[C@H]2[C@@H]1c1cncs1 [Compound 59] . Output IC50: 29.4

----------
# Experiment: Hepatic intrinsic clearance following incubation in human liver microsomes
# Assay type: in vitro ADME
# Reported conditions: 0.5 μM test compound, NADPH, 0-30 min, scaled to g liver
# Procedure: Hepatic Extraction Ratio from Hepatic Intrinsic Clearance Following Incubation in Human Liver Microsomes The general procedure consists of an automated incubation system and LC-MS/MS analysis with human liver microsomes. […] The integrated peak areas for test compounds at the selected time points are divided by the respective peak areas of the IS and the percent of parent remaining is calculated by normalizing the peak area ratio of parent to IS at 0 min. […]
Human in vitro Clint values by entry

Below: 2 compounds and their reported Human in vitro Clint.
{"columns": ["Compound", "Human in vitro Clint"],
 "data": [
  ["Cc1cc([C@@H](C)N(C)C(=O)N2CCN3C(=O)C(CCO)(CCO)C[C@H]3[C@@H]2c2c[nH]nc2C)cc(C(F)(F)F)c1", "51 mL/min/g"],
  ["C[C@H](c1cc(C(F)(F)F)cc(C(F)(F)F)c1)N(C)C(=O)N1CCN2C(=O)CC[C@H]2[C@@H]1c1cncs1", ">200 mL/min/g"]
]}

Input CCc1cc([C@@H](C)N(C)C(=O)N2CCN3C(=O)CC[C@H]3[C@@H]2c2ccc(O)cc2C)cc(C(F)(F)F)c1 . Output Human in vitro Clint: >200 mL/min/g

Input CCc1cc([C@@H](C)N(C)C(=O)N2CCN3C(=O)CC[C@H]3[C@@H]2c2cscc2C)cc(C(F)(F)F)c1 . Output Human in vitro Clint: >200 mL/min/g

Input Cc1cccnc1[C@@H]1[C@@H]2CCC(=O)N2CCN1C(=O)N(C)[C@H](C)c1cc(C(F)(F)F)cc(C(F)(F)F)c1 . Output Human in vitro Clint: >200 mL/min/g

Input Cc1cc(F)ccc1[C@H]1[C@@H]2CCC(=O)N2CCN1C(=O)N(C)[C@H](C)c1cc(C(F)(F)F)cc(C(F)(F)F)c1 . Output Human in vitro Clint: 40 mL/min/g
